target: Beta Secretase enzyme (BACE) (Homo sapiens (Human), UniProt P56817); experiment: In vitro enzymatic BACE FRET assay; type: biochemical; details: read-out: BACE1 Enzyme assay IC50
Sequence (P56817 46-501): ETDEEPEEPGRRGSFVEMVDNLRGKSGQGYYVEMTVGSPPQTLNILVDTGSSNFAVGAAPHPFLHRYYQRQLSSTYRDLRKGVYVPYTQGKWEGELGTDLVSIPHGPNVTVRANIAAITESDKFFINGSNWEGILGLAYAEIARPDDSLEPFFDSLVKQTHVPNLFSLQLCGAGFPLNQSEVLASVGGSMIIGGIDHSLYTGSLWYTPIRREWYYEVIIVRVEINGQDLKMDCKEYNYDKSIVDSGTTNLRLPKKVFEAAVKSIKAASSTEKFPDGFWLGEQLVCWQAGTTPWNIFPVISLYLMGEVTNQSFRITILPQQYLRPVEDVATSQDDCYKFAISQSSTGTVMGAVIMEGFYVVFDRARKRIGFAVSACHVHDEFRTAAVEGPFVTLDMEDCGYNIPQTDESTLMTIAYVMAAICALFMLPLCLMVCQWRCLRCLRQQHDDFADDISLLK
Structures can show the parent of a compound that is named as a salt.
Quantity: IC50 (nM)
Write the value in nM as a bare number.

Check out these entries, answers already filled in.
molecule=COc1cnc2c(Nc3ccc(F)c([C@@]4(C(F)F)N=C(N)O[C@@H]5C[C@@H]54)c3)ncnc2c1 result=224
molecule=N#Cc1cnc(C(=O)Nc2ccc(Cl)c([C@@]3(CF)N=C(N)O[C@@H]4C[C@@H]43)c2)c(F)c1 result=50.2
molecule="CNc1cnc(C(=O)Nc2ccc(F)c([C@@]3(C(F)F)N=C(N)O[C@@H]4C[C@@H]43)c2)nc1 [Example 439, dihydrochloride]" result=473
molecule=NC1=N[C@](CF)(c2cc(Nc3nccc4cc(Cl)cnc34)ccc2Cl)[C@H]2C[C@H]2O1 result=29.1

Now examine the next entry.
Input line: Kindly state the measured IC50 obtained for C=C1CC(CNc2ccc(F)c([C@@]3(C(F)F)N=C(N)O[C@@H]4C[C@@H]43)c2)C1 with Beta Secretase enzyme (BACE) (Homo sapiens (Human), UniProt P56817).
Output line: 6000

###

molecular target: Cathepsin D (Cat D) (Homo sapiens (Human)); test: In vitro enzymatic Cathepsin D (Cat D) FRET assay; type: biochemical; conditions: read-out: CatD IC50
Sequence (P07339 65-412, species assumed): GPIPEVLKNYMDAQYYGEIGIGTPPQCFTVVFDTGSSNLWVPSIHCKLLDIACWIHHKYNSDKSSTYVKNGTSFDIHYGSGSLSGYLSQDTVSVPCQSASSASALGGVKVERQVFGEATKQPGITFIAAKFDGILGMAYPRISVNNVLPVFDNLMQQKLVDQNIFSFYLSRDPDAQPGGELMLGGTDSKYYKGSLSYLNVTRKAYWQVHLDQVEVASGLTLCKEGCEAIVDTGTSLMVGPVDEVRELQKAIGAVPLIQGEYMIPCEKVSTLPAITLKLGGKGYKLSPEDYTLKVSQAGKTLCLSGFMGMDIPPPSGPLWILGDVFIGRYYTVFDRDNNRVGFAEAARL
Classes based on IC50: lowest: < 200 µM; middle: ≥ 200 µM and < 700 µM; highest: ≥ 700 µM

These solved cases illustrate the format of a correct answer.
compound=NC1=N[C@@](c2cc(NCC3(c4ccc(Cl)cc4)CC3)ccc2F)(C(F)F)[C@H]2C[C@H]2O1 assigned_category=lowest
compound=COc1cnc2c(Nc3ccc(F)c([C@@]4(C(F)F)N=C(N)O[C@@H]5C[C@@H]54)c3)ncnc2c1 assigned_category=middle
compound=C#CCOc1cnc(C(=O)Nc2ccc(Cl)c([C@@]3(CF)N=C(N)O[C@@H]4C[C@@H]43)c2)cn1 assigned_category=lowest
compound=COc1cnc(C(=O)Nc2ccc(F)c([C@@]3(CF)N=C(N)O[C@@H]4C[C@@H]43)c2)cn1 assigned_category=highest
compound="COc1c(F)cc(NC(=O)c2ccc(Cl)cn2)cc1[C@@]1(CF)N=C(N)O[C@@H]2C[C@@H]21 [Example 145]" assigned_category=middle
compound=C#C[C@H](C)Oc1cnc(C(=O)Nc2ccc(F)c([C@@]3(C(F)F)N=C(N)O[C@@H]4C[C@@H]43)c2)cn1 assigned_category=highest

Please turn your attention to the following entry.
Input line: Any idea which band COc1cnc(C(=O)Nc2cc(F)c(Cl)c([C@]3(CF)N=C(N)O[C@H]4C[C@H]43)c2)cn1 (racemic) [Example 152] is in?
Output line: middle

###

target: Cathepsin D (Cat D) (Homo sapiens (Human)); test: In vitro enzymatic Cathepsin D (Cat D) FRET assay; assay type: biochemical; settings: read-out: CatD IC50
Lab note: cut-off is 400 µM. Strictly less in IC50 is label 1. Exactly 400 µM or more is label 0.

These solved cases illustrate the format of a correct answer.
compound=COc1cnc(C(=O)Nc2ccc(Cl)c([C@@]3(CF)N=C(N)O[C@@H]4C[C@@H]43)c2)cn1 assigned_category="label 0"
compound=Cc1cc(C#N)cnc1C(=O)Nc1ccc(Cl)c([C@@]2(CF)N=C(N)O[C@@H]3C[C@@H]32)c1 assigned_category="label 0"
compound=N#Cc1cnc(C(=O)Nc2ccc(Cl)c([C@@]3(CF)N=C(N)O[C@@H]4C[C@@H]43)c2)c(F)c1 assigned_category="label 0"
compound=N#Cc1cnc(C(=O)Nc2ccc(Cl)c([C@@]3(CF)N=C(N)O[C@@H]4C[C@@H]43)c2)c(CO)c1 assigned_category="label 1"
compound=COC[C@@]1(c2cc(NC(=O)c3ccc(Cl)cn3)ccc2F)N=C(N)O[C@H]2C[C@H]21 assigned_category="label 0"
compound=Cc1ccc(C(=O)Nc2ccc(F)c([C@@]3(C(F)F)N=C(N)O[C@@H]4C[C@@H]43)c2)nc1 assigned_category="label 0"
compound=NC1=N[C@](CF)(c2cc(NC(=O)c3ccc(Br)cn3)ccc2Cl)[C@H]2C[C@H]2O1 assigned_category="label 0"
compound=C#Cc1ccc(C(=O)Nc2ccc(F)c([C@@]3(C(F)F)N=C(N)O[C@@H]4C[C@@H]43)c2)nc1 assigned_category="label 0"
compound=C[C@]1(c2nc(NC(=O)c3ccc(Cl)cn3)ccc2F)N=C(N)O[C@@H]2C[C@@H]21 assigned_category="label 1"
compound=C[C@]1(c2nc(NC(=O)c3ccc(C#N)cn3)ccc2F)N=C(N)O[C@@H]2C[C@@H]21 assigned_category="label 1"

Input line: I'd appreciate it if you could check whether NC1=N[C@@](c2cc(NC(=O)c3ncc(Br)cc3C(F)F)ccc2F)(C(F)F)[C@H]2C[C@H]2O1 has IC50 smaller than 400 µM.
Output line: label 1

Input line: NC1=N[C@@](c2cc(NC(=O)c3cnc(OCC4CCCC4)cn3)ccc2F)(C(F)F)[C@H]2C[C@H]2O1 , same question.
Output line: label 0

Input line: CC#Cc1cncc(-c2ccc(F)c([C@@]3(CF)N=C(N)O[C@@H]4C[C@@H]43)c2)c1 , same question.
Output line: label 1

###

target: Beta Secretase enzyme (BACE) (Homo sapiens (Human), UniProt P56817); experiment: In vitro enzymatic BACE FRET assay; assay type: biochemical; conditions: read-out: BACE1 Enzyme assay IC50
Classes based on IC50: bottom end (below 0.06 µM), midrange (0.06 µM to below 0.5 µM), top end (0.5 µM or more)

molecule="NC1=N[C@@](c2cc(NC(=O)c3csc(Cl)c3)ccc2F)(C(F)F)[C@H]2C[C@H]2O1 [Example 181]" tested_target="Beta Secretase enzyme (BACE) (Homo sapiens (Human), UniProt P56817)" assigned_category="top end"

Input line: Any idea which band NC1=N[C@@](c2cc(NC(=O)COc3ccccc3)ccc2F)(C(F)F)[C@H]2C[C@H]2O1 [Example 256] is in?
Output line: top end

Input line: NC1=N[C@@](c2cc(NCc3ccc(Cl)cn3)ccc2F)(C(F)F)[C@H]2C[C@H]2O1 [Example 377] , same question.
Output line: top end

###

biological target: Beta Secretase enzyme (BACE) (Homo sapiens (Human)); assay: In vitro enzymatic BACE FRET assay; type: biochemical; settings: read-out: BACE1 Enzyme assay IC50
pIC50: −log10 of the molar value.
Rule: pIC50 under 7 gives Not satisfied, otherwise Satisfied.

molecule=NC1=N[C@@](c2cc(Nc3nccc4nc(C(F)(F)F)cnc34)ccc2F)(C(F)F)[C@H]2C[C@H]2O1 assigned_category="Not satisfied"
molecule="COc1cnc(C(=O)Nc2cc(F)c(Cl)c([C@]3(CF)N=C(N)O[C@H]4C[C@H]43)c2)cn1 [Example 155]" assigned_category="Not satisfied"
molecule="NC1=N[C@@](CF)(c2nc(NC(=O)c3ccc(Cl)cn3)ccc2F)[C@@H]2C[C@@H]2O1 (stereo in doubt)" assigned_category="Not satisfied"
molecule=COc1cnc2c(Nc3ccc(F)c([C@@]4(CF)N=C(N)O[C@@H]5C[C@@H]54)c3F)nccc2n1 assigned_category="Not satisfied"
molecule=NC1=N[C@](CF)(c2cc(NC(=O)c3ncc(Cl)cc3Cl)ccc2Cl)[C@H]2C[C@H]2O1 assigned_category=Satisfied
molecule=NC1=N[C@@](c2cc(NC(=O)c3ncc(Br)cc3C(F)F)ccc2F)(C(F)F)[C@H]2C[C@H]2O1 assigned_category=Satisfied

Please turn your attention to the following entry.
Input line: Given the entry COc1cnc(C(=O)Nc2ccc(Cl)c([C@@]3(CF)N=C(N)O[C@@H]4C[C@@H]43)c2)c(C)n1 , answer whether its pIC50 meets or surpasses 7.
Output line: Not satisfied

###

In this section, each of the compounds is paired with its reported IC50.
biological target: BACE (Homo sapiens (Human), UniProt P56817); assay: In vitro BACE cell-based assay (Aβ40 in conditioned medium, sandwich ELISA)
Sequence (P56817 46-501, species assumed): as the sequence (P56817 46-501) above
Write the value in µM as a bare number.

Check out these entries, answers already filled in.
compound=CC#CCOc1cnc(C(=O)Nc2ccc(F)c([C@]3(C)N=C(N)O[C@H]4C[C@H]43)c2)c(C)c1 unit=µM result=0.455
compound=Cc1ccc(NC(=O)c2ccc(Cl)cn2)cc1[C@@]1(C(F)F)N=C(N)O[C@@H]2C[C@@H]21 unit=µM result=0.0129
compound="NC1=NC(c2cc(NCc3nn(C(F)F)cc3Cl)ccc2F)(C(F)F)[C@H]2C[C@H]2O1 (stereo in doubt)" unit=µM result=0.0779
compound=N#Cc1cnc(C(=O)Nc2ccc(Cl)c([C@@]3(CF)N=C(N)O[C@@H]4C[C@@H]43)c2)c(Cl)c1 unit=µM result=0.0078
compound=Cc1cc(OC(F)F)cnc1C(=O)Nc1ccc(Cl)c([C@@]2(C(F)F)N=C(N)O[C@@H]3C[C@@H]32)c1 unit=µM result=0.0385

Input line: Kindly state the measured IC50 obtained for N#Cc1cnc2c(c1)CC[C@H]2Nc1ccc(F)c([C@@]2(C(F)F)N=C(N)O[C@@H]3C[C@@H]32)c1 with BACE (Homo sapiens (Human), UniProt P56817).
Output line: 0.0575

Input line: N#Cc1cnc2c(Nc3ccc(F)c([C@@]4(CF)N=C(N)O[C@@H]5C[C@@H]54)c3)ncnc2c1 , same question.
Output line: 0.0243

Input line: COc1ccc(C(=O)Nc2ccc(F)c([C@@]3(C(F)F)N=C(N)O[C@@H]4C[C@@H]43)c2)nc1 , same question.
Output line: 0.0586

Input line: Cc1cc(C#N)cnc1C(=O)Nc1ccc(F)c([C@@]2(CF)N=C(N)O[C@@H]3C[C@@H]32)c1 , same question.
Output line: 0.009

Input line: NC1=N[C@](c2cc(NC(=O)c3ccc(Br)cn3)ccc2F)(C(F)F)[C@@H]2C[C@@H]2O1 , same question.
Output line: 3.51

Input line: C#CCOc1cnc(C(=O)Nc2cc(F)c(Cl)c([C@@]3(CF)N=C(N)O[C@@H]4C[C@@H]43)c2)cn1 , same question.
Output line: 0.0014

Input line: Cc1cc(Cl)cnc1C(=O)Nc1ccc(F)c([C@@]2(CF)N=C(N)O[C@@H]3C[C@@H]32)c1 , same question.
Output line: 0.0152

These entries and their values trace back to patent US9085576B2.
